I'd be grateful if you could share measured koff for these entries.
target: Biotinylated recombinant human CD3εδ (Acro Biosystems, CDD-H82W6) (human) (UniProt P07766); experiment: Octet BLI, biotinylated CD3εδ on streptavidin sensors, 1:1 model
Sequence (P07766 23-126, stated change not applied, chain 1 of 2): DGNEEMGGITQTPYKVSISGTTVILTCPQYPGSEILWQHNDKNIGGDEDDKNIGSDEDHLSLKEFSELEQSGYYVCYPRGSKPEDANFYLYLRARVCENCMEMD
Sequence (P04234 22-105, stated change not applied, chain 2 of 2, further chain): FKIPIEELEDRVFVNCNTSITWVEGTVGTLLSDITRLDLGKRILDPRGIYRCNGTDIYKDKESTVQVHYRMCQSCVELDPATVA
Your answer is read as s⁻¹, so omit the unit and give the number.

QUERY: Report koff for EGFR-CD3 DuetMab with anti-CD3 variant AZ Vκ 29 + AZ VH E82 (bispecific antibody, part only; not given: anti-EGFR arm, constant regions, V domains shown, not shown: another chain or arm of the molecule; a dimerising Fc or GST; small tags and cut ends) VH: EVQLVESGGALVKPGGSLRLSCAASGFTFTEAWMHWVRQAPGKQLEWVAQIKDRSQTYATYYAESVKGRFTISRDDSKNTLYLQMNSLKTEDTAVYYCRGVYYANTPFDYWGQGTLVTVSS VL: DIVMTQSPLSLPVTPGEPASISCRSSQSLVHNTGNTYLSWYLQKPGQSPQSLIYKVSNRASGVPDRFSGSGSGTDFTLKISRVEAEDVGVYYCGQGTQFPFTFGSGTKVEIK please.
RESULT: 0.0755

QUERY: Report koff for EGFR-CD3 DuetMab with anti-CD3 variant AZ Vκ 26 + AZ VH SN82 (bispecific antibody, part only; not given: anti-EGFR arm, constant regions, V domains shown, not shown: another chain or arm of the molecule; a dimerising Fc or GST; small tags and cut ends) VH: EVQLVESGGALVKPGGSLRLSCAASGFTFSNAWMHWVRQAPGKQLEWVAQIKDRSQTYATYYAESVKGRFTISRDDSKNTLYLQMNSLKTEDTAVYYCRGVYYANTPFDYWGQGTLVTVSS VL: DIVMTQSPLSLPVTPGEPASISCRSSQSLVHNTGNTYLSWYLQKPGQSPQSLIYKVSNRASGVPDRFSGSGSGTDFTLKISRVEAEDVGVYYCGQGTQAPFSFGSGTKVEIK please.
RESULT: 0.0212

QUERY: Report koff for EGFR-CD3 DuetMab with anti-CD3 variant AZ Vκ 29 + AZ VH SN82 (bispecific antibody, part only; not given: anti-EGFR arm, constant regions, V domains shown, not shown: another chain or arm of the molecule; a dimerising Fc or GST; small tags and cut ends) VH: EVQLVESGGALVKPGGSLRLSCAASGFTFSNAWMHWVRQAPGKQLEWVAQIKDRSQTYATYYAESVKGRFTISRDDSKNTLYLQMNSLKTEDTAVYYCRGVYYANTPFDYWGQGTLVTVSS VL: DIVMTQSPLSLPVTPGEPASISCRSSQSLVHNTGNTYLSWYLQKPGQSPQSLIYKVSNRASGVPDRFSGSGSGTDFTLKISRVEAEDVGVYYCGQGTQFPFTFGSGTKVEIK please.
RESULT: 0.0422

QUERY: Report koff for EGFR-CD3 DuetMab with anti-CD3 variant AZ Vκ 26 + AZ VH SN79 (bispecific antibody, part only; not given: anti-EGFR arm, constant regions, V domains shown, not shown: another chain or arm of the molecule; a dimerising Fc or GST; small tags and cut ends) VH: EVQLVESGGALVKPGGSLRLSCAASGFTFSNAWMHWVRQAPGKQLEWVAQIKDRSQTYATYYAESVKGRFTISRDDSKNTLYLQMNSLKTEDTAVYYCRGVYYAVTPFDYWGQGTLVTVSS VL: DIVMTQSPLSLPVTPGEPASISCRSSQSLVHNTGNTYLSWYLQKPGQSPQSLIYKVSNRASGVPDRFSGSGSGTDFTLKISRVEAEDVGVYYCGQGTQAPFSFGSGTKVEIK please.
RESULT: 0.0361

QUERY: Report koff for EGFR-CD3 DuetMab with anti-CD3 variant AZ Vκ 26 + AZ VH E82 (bispecific antibody, part only; not given: anti-EGFR arm, constant regions, V domains shown, not shown: another chain or arm of the molecule; a dimerising Fc or GST; small tags and cut ends) VH: EVQLVESGGALVKPGGSLRLSCAASGFTFTEAWMHWVRQAPGKQLEWVAQIKDRSQTYATYYAESVKGRFTISRDDSKNTLYLQMNSLKTEDTAVYYCRGVYYANTPFDYWGQGTLVTVSS VL: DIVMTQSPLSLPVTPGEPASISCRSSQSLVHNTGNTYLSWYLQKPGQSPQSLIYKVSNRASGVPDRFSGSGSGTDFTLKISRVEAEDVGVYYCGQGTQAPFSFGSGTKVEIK please.
RESULT: 0.0287
